Target: MAGE-A1 target antigen peptide … presented by HLA-A*02:01 on cells (human)
Test: cell-based or functional assay
Set-up: unit not given beside the values
quantity_name: EC50 Enhancement Factor
Answer using only a numeral; do not append any unit.

Input ht27M1557 (TCR, V domains shown) Valpha: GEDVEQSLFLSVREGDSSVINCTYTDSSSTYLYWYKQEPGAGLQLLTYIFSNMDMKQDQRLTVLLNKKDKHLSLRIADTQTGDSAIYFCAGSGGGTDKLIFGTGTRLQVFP Vbeta: GAVVSQHPSWVICKSGTSVKIECRSLDFQATTMFWYRQFPKQSLMLMATSNEGSKATYEQGVEKDKFLINHASLTLSTLTVTSAHPEDSSFYICSAREPGQEHLIQYFGPGTRLTVT , output reported EC50 Enhancement Factor.
1120

Input ht27M1285 (TCR, V domains shown) Valpha: GEDVEQSLFLSVREGDSSVINCTYTDSSSTYLYWYKQEPGAGLQLLTYIFSFMDMKQDQRLTVLLNKKDKHLSLRIADTQTGDSAIYFCAGSGGGTDKLIFGTGTRLQVFP Vbeta: GAVVSQHPSWVICKSGTSVKIECRSLDFQATTMFWYRQFPKQSLMLMATSNEGSKATYEQGVEKDKFLINHASLTLSTLTVTSAHPEDSSFYICSAREPGQGPYEQYFGPGTRLTVT , output reported EC50 Enhancement Factor.
281

Input ht27M1414 (TCR, V domains shown) Valpha: GEDVEQSLFLSVREGDSSVINCTYTDSSSTYLYWYKQEPGAGLQLLTYTWPHMDMKQDQRLTVLLNKKDKHLSLRIADTQTGDSAIYFCAGSGGGTDKLIFGTGTRLQVFP Vbeta: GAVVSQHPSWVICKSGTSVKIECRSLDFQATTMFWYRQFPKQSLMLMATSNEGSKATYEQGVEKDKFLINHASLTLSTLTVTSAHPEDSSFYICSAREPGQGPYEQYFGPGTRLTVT , output reported EC50 Enhancement Factor.
739
